Attribution: the supplement of paper PMC10567573

B1: ZBTB22 (parent)
chain: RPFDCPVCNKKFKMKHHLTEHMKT

# Variants of: B1
# Experiment: protein stability index of a GFP-peptide fusion (GPS, HEK-293T) (PSI 1-6); higher = more stable;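 also: lentivirally expressed fusions sorted by FACS into six bins by GFP to DsRed ratio, PSI derived from sequencing read proportions per bin multiplied by bin number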
# Test Context: c terminus: a fixed tail appended
Param threshold (3) applies to protein stability index; output satisfied when value >= threshold, not satisfied when value < threshold.

Use these answered entries as a reference point.
RPFDCPVCSKKFKMKHHLTEHMKT [N9S] :: not satisfied
RPFDCPVCNKKFKMKHHLTEHDKT [M22D] :: satisfied
RPFDCPVCNKKFCMKHHLTEHMKT [K13C] :: satisfied
RPFDCPVCNKKFKMKHHSTEHMKT [L18S] :: not satisfied
RPFDRPVCNKKFKMKHHLTEHMKT [C5R] :: satisfied
RPFDCVVCNKKFKMKHHLTEHMKT [P6V] :: not satisfied

[ask] Could you tell me if the measured protein stability index of RPFDCPVCNKKFKMKAHLTEHMKT [H16A] reaches 3 or more?
[reply] not satisfied

[ask] Is protein stability index at least 3? Consider RPFDCPVCRKKFKMKHHLTEHMKT [N9R]
[reply] not satisfied

[ask] Confirm if protein stability index reported for the variant RPFDCPVCKKKFKMKHHLTEHMKT [N9K] is 3 or above.
[reply] satisfied

[ask] Decide: protein stability index of RPFDCLVCNKKFKMKHHLTEHMKT [P6L] >= 3?
[reply] not satisfied

[ask] Hi, just wondering whether RPFDCPVCNKKFKTKHHLTEHMKT [M14T] shows protein stability index of 3 or higher.
[reply] satisfied

[ask] Does the variant RPFDCPVCNKKFKMKHHLKEHMKT [T19K] have recorded protein stability index that is 3 or more?
[reply] not satisfied

[ask] Can KPFDCPVCNKKFKMKHHLTEHMKT [R1K] be said to have protein stability index at or above 3?
[reply] not satisfied
